experimental-system: Phospholipase D1 (Rattus norvegicus, UniProt P70496)
Sequence (P70496 whole entry, the tested form may be a part): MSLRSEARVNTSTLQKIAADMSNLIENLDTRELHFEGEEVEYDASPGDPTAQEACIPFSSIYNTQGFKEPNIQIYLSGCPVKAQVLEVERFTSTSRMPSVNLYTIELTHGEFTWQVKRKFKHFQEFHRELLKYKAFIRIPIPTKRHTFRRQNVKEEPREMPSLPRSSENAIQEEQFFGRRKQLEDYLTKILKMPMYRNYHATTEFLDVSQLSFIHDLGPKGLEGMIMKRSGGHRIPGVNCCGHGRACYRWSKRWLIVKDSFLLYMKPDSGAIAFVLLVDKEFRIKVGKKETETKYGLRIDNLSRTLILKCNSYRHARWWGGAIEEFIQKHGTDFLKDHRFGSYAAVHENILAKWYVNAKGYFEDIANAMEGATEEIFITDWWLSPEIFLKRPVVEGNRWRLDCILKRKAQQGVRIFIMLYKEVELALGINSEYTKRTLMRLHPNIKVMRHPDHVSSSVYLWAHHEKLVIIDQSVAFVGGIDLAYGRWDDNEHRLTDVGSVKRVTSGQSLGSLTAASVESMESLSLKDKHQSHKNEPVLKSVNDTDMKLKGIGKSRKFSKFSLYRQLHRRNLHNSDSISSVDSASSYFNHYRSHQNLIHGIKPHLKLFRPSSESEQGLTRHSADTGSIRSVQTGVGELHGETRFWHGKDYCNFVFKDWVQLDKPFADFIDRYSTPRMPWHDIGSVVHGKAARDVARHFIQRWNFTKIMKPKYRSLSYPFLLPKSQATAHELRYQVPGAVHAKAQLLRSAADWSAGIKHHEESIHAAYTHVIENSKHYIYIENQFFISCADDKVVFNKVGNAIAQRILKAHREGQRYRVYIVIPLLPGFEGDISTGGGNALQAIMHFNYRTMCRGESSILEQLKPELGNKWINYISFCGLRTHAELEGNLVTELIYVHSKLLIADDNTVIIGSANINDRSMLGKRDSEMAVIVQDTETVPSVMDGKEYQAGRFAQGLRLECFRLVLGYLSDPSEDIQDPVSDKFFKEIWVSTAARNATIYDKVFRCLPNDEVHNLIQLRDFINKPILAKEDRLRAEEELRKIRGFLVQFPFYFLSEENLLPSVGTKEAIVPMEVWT
assay-notes: Inhibition of N-terminally truncated rat PLD1 assessed as release of methyl-[3H]choline from choline-methyl-[3H]dipalmitoylphosphatidylcholine after 30 mins by exogenous substrate assay
I'd be grateful if you could share measured pIC50 for these entries.
Give bare numbers, as −log10 of the molar value.

In the examples that follow, each entry is paired with its recorded pIC50.
CCC(=C(c1ccc(O)cc1)c1ccc(OCCN(C)C)cc1)c1ccccc1
4.55
O=C(NCCN1CCC(n2c(O)nc3ccccc32)CC1)c1ccc(Cl)c(Cl)c1
6.04
O=C(NCCN1CCC(n2c(=O)[nH]c3ccccc32)CC1)c1cc2cc(F)ccc2[nH]1
7.48
O=C(NCCN1CCC(n2c(=O)[nH]c3ccccc32)CC1)c1ccc[nH]1
5.82

Now let's try a different one.
Request: Which value of pIC50 has been reported for `O=C(c1ccc(F)cc1)N(CCN1CCC(n2c(=O)[nH]c3ccccc32)CC1)C(=O)c1ccc(F)cc1` in the records?
Response: 6.06

* * *

experimental-system: Phospholipase D2 (Homo sapiens, UniProt O14939)
Sequence (O14939 whole entry): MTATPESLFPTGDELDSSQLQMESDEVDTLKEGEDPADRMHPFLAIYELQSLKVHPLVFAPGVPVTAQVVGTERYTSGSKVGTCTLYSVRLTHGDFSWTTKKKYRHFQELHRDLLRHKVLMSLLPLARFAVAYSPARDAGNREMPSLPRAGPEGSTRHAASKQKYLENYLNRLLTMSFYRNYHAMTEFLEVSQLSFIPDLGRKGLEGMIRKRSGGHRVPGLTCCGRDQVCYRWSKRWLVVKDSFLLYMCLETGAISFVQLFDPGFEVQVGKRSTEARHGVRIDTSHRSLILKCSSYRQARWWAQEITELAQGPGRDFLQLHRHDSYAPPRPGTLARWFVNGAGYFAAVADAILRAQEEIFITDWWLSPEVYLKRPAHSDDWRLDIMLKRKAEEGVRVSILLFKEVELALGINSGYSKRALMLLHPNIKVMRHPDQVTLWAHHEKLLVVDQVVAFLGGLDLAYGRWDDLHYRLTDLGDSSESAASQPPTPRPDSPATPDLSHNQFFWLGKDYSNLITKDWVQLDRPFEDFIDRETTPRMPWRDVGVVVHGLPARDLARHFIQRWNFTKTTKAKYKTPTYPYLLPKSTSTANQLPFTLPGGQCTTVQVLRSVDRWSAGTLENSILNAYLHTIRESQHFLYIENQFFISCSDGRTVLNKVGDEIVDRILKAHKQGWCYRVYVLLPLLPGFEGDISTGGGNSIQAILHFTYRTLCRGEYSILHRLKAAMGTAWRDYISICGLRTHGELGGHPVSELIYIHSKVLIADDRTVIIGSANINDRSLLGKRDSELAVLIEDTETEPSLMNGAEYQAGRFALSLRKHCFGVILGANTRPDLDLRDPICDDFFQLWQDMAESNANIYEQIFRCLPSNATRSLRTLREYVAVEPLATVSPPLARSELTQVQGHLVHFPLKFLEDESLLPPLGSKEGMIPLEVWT
assay-notes: Inhibition of GFP-tagged human PLD2 expressed in human HEK293 cells assessed as decrease in phosphatidylbutanol-[d9] production after 30 mins by mass spectrometric analysis
Assay type: cell-based
I'd be grateful if you could share measured pIC50 for these entries.
Answers are plain numbers, as −log10 of the molar value.

O=C(NCCN1CCC(n2c(O)nc3ccccc32)CC1)c1ccc(Cl)c(Cl)c1
6.66
O=C(NCCN1CCC(n2c(=O)[nH]c3ccccc32)CC1)c1ccc[nH]1
6.47

Now let's try a different one.
Request: Which value of pIC50 has been reported for `O=C(NCCN1CCC(n2c(=O)[nH]c3ccccc32)CC1)c1cc(Cl)cc(Cl)c1` in the records?
Response: 5.96

* * *

experimental-system: Phospholipase D1 (Homo sapiens, UniProt Q13393)
Sequence (Q13393 whole entry): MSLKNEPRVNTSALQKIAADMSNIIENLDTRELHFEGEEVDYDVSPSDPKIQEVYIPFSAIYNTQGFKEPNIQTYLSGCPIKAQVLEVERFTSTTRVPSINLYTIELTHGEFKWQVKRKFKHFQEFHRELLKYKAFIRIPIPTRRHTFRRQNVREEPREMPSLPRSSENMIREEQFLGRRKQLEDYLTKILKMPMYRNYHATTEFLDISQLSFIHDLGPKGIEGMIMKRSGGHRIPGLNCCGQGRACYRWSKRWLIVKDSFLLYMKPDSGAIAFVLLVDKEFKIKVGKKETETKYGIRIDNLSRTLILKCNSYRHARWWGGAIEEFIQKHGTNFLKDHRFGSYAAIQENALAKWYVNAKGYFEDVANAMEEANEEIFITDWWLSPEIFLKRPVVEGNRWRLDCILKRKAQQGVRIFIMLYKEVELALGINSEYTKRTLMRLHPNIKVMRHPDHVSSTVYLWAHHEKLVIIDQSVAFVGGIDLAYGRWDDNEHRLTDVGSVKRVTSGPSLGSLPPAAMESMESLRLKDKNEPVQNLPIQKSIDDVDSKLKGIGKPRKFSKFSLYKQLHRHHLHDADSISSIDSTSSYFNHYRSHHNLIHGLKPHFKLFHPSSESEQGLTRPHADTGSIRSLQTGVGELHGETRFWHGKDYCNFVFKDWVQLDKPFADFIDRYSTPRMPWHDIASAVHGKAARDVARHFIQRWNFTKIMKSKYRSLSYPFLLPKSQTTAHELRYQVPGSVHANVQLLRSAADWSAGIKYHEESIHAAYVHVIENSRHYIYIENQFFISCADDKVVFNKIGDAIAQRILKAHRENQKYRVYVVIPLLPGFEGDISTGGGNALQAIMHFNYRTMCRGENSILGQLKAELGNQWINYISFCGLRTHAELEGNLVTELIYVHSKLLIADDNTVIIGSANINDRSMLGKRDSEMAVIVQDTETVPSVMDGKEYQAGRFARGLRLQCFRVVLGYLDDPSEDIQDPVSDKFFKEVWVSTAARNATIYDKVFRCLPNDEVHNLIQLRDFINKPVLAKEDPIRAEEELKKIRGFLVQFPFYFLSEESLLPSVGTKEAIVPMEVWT
assay-notes: Inhibition of human PLD1 assessed as release of methyl-[3H]choline from choline-methyl-[3H]dipalmitoylphosphatidylcholine after 30 mins by exogenous substrate assay
recorded-endpoint: IC50 (nM)
Give bare numbers, in nM.

In the examples that follow, each entry is paired with its recorded IC50.
O=C(NCCN1CCC(n2c(O)nc3ccccc32)CC1)c1ccc(Cl)c(Cl)c1
46
O=C(NCCN1CCC(n2c(=O)[nH]c3ccccc32)CC1)c1ccc[nH]1
316
O=C(NCCN1CCC(n2c(O)nc3ccccc32)CC1)c1ccc(Cl)cc1
55

Now let's try a different one.
Request: Which value of IC50 has been reported for `Cc1ccc(C(=O)NCCN2CCC(n3c(O)nc4ccccc43)CC2)cc1` in the records?
Response: 780
